Test system: MS2 coat protein
Experiment: apparent KD of MS2 coat protein; higher = weaker reporter binding
Conditions Used: Eterna round: R107; input ligand: none
Quick reference for apparent KD of MS2 coat protein among some sequences
Express your answer in nM, writing the number without its unit.

Guide cases for apparent KD of MS2 coat protein, answers given:
[
  {
    "Biosequence": "AAACGUUGCUGCGAUACCAGACAUGAGGAUCACCCAUGUACCAAGGUAAAGAAAUAACGUGUCCCUUGGCAGCGCAGCAACGAAA [MAT - Exclusion Theophlline B - Mod of Eli - D12]",
    "Unit Symbol": "nM",
    "apparent KD of MS2 coat protein": 10.2
  },
  {
    "Biosequence": "ACAUGAGGAUCACCCAUGUAAUAGCGAGAAGGAGCGCGUAAGGACGCAGGUAGGUCGCUCGUGGUCCGGCCGCAAGGCCGGACCA [#1 Same State - Arginine A Attempt #10 (HarryS)]",
    "Unit Symbol": "nM",
    "apparent KD of MS2 coat protein": 9.24
  },
  {
    "Biosequence": "ACAUGAGGAUCACCCAUGUAUUGAGCCGAAGGAGCGGCAGGUAUGCCAGGUAGGUCGCGGUUAGAGUAGAUUGAUGUUCUUUUGU [Exclusion - Arginine A / B]",
    "Unit Symbol": "nM",
    "apparent KD of MS2 coat protein": 12.7
  }
]

From here, focus on the item given below.
Provide apparent KD of MS2 coat protein value for the following sequence: CCUAUCCAGUCGGCCGCCACUGAAAACAGUGGGUGAACAUGAGGAUCACCCAUGUAAUAAUAAAACAGGACCGGGACUGUAUAGG [Ex Tryptophan B 22]
452

Cited source for all entries: the supplement of paper PMC9170038
